# measured.on: hSTING-HAQ haplotype (Homo sapiens, UniProt Q86WV6, G230A/H232R/R293Q/R71H)
# Construct: host or cells: THP-1-Dual
# Sequence (Q86WV6 whole entry R71H/G230A/H232R/R293Q): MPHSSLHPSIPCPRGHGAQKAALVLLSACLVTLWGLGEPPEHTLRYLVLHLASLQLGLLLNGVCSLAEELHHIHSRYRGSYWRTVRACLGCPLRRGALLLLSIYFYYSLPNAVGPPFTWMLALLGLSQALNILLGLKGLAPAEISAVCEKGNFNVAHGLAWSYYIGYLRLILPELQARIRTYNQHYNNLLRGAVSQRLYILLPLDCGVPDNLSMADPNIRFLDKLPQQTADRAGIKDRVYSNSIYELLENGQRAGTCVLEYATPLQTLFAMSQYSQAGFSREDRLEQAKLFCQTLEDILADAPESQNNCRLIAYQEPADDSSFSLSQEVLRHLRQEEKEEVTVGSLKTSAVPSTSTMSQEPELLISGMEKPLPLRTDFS
# assay.protocol: THP-1-Dual reporter assay (endogenous hSTING-HAQ)
# Format: cell-based
# condition.details: THP-1-Dual cells (hSTING-HAQ), 24 hours
Hi there, I'd appreciate the recorded EC50 for every entry that follows.

Form field EC50, entry CCn1nc(C)cc1C(=O)Nc1nc2cc(C(N)=O)ccc2n1C/C=C/Cn1c(NC(=O)c2cc(C)nn2CC)nc2cc(C(N)=O)cc(OCCCN3CC4(C3)CN(C(=O)CN)CCO4)c21 [Compound 3] : 50 to 150 nM

The compound identified as CCc1nc(C)sc1C(=O)Nc1nc2cc(C(N)=O)cc(OC)c2n1C/C=C/Cn1c(NC(=O)c2sc(C)nc2CC)nc2cc(C(N)=O)cc(OCCCN3CCC(c4nnc5n4CCNC5)CC3)c21 [Compound 44] registered its EC50 at ≤ 50 nM

So, CCn1nc(C)cc1C(=O)Nc1nc2cc(C(N)=O)ccc2n1C/C=C/Cn1c(NC(=O)c2cc(C)nn2CC)nc2cc(C(N)=O)cc(OCCCN3CC4(C3)CN(C(=O)CON)CCO4)c21 [LP-1-1] ? Its EC50 was 50 to 150 nM

Provenance of the data: patent US20250108048A1
